# tested on: T1, soluble human recombinant CD4 expressed in baculovirus (human, UniProt P01730 26-396, limits assumed)
# T1 construct: Coated on plates for the ELISA and covalently immobilised on the sensor for BIAcore; Only called soluble; also called soluble CD4; CD4 expressed in the baculovirus
# assay explanation: SPR (BIAcore), CD4 immobilised
Item-by-item account of koff
Numbers only; they are read as s⁻¹.

Previously resolved entries follow.
INSERT INTO measurements (binder, value) VALUES
  ('mutant Fab R53-H of the 13B8.2 antibody (Fab, V domains shown, Chimeric Fab with human CH1-γ1 and Cκ; baculovirus/Sf9) VH: QVQLKQSGPGLVQPSQSLSITCTVSGFSLTTFGVHWVRQSPGKGLEWLGVIWASGITDYNVPFMSRLSITKDNSKSQVFFKLNSLQPDDTAIYYCAKNDPGTGFAYWGQGTLVTVSA VL: DIQMTQSPASLSASVGETVTFTCRASENIYSYLAWYQQKQGKSPQLLVHDAKTLAEGVPSRFSGGGSGTQFSLKINTLQPEDFGTYYCQHHYGNPPTFGGGTKLEIK', 0.0105),
  ('mutant Fab Y32-L of the 13B8.2 antibody (Fab, V domains shown, Chimeric Fab with human CH1-γ1 and Cκ; baculovirus/Sf9) VH: QVQLKQSGPGLVQPSQSLSITCTVSGFSLTTFGVHWVRQSPGKGLEWLGVIWRSGITDYNVPFMSRLSITKDNSKSQVFFKLNSLQPDDTAIYYCAKNDPGTGFAYWGQGTLVTVSA VL: DIQMTQSPASLSASVGETVTFTCRASENIYSALAWYQQKQGKSPQLLVHDAKTLAEGVPSRFSGGGSGTQFSLKINTLQPEDFGTYYCQHHYGNPPTFGGGTKLEIK', 0.000585);

Now look at this one.
Lookup: Give the reported value of koff for this record: mutant Fab C92-H of the 13B8.2 antibody (Fab, V domains shown, Chimeric Fab with human CH1-γ1 and Cκ; baculovirus/Sf9) VH: QVQLKQSGPGLVQPSQSLSITCTVSGFSLTTFGVHWVRQSPGKGLEWLGVIWRSGITDYNVPFMSRLSITKDNSKSQVFFKLNSLQPDDTAIYYAAKNDPGTGFAYWGQGTLVTVSA VL: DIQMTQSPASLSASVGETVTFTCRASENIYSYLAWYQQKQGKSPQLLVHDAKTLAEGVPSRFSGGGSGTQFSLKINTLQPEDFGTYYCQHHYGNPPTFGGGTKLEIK
Found: 0.000358
